Some compounds, each annotated with its measured GI50.
Test system: OVCAR-5
Measurement description: NCI tumour cell line growth inhibition, 48 h
The source made the active and inactive calls. Cut-off read from the data, not from the text of the source: active = GI50 up to about 1.1 µM and inactive = higher.

Look over these answered cases.
O=C(O)CCC(=O)OCN1C(=O)C2C3C=CC(C2C1=O)C1C2C(=O)N(COC(=O)CCC(=O)O)C(=O)C2C31 (stereo not drawn): > 100 µM (inactive)
Cc1cccc(NC(=O)c2c(N)[n+]([O-])c3ccccc3[n+]2[O-])c1: 26.7 µM (inactive)

From here, focus on the item given below.
Please give the measured GI50 for this compound: "CC(=O)OCc1ccc2oc(=O)c(C(=O)Oc3cccc(Cl)c3)cc2c1"
> 100 µM (inactive)
